Reference for the values: patent US20100022559A1

The compounds listed here are annotated with their logP.
Procedure summary: logP determination by HPLC on a reversed-phase column (C 18), EEC Directive 79/831 Annex V.A8
Type: physicochemical
Experimental parameters: [b] LC-MS, acidic range, pH 2.7, 0.1% aqueous formic acid and acetonitrile

Given item C/C(=N\OCC(C)CON)c1cc(C)cc(C)n1 (racemic) [XII-9] , the value recorded as its logP is 0.49^[b]

New cases:
Item: C/C(=N\OCC(C)CON)c1ccc(C)c(C)n1 (racemic) [XII-7] | logP: 0.37^[b]

Form field logP, entry C/C(=N\OCC1(CON)CC1)c1cc(C)cc(C)n1 [XII-12] : 0.61^[b]

For C/C(=N\OCC(C)(C)CON)c1ccc(C)c(C)n1 [XII-6] the compound record lists logP as 0.98^[b]

Lab note: C/C(=N\OCC(C)(C)CON)c1cccc(C)n1 [XII-4] gave logP of 1.11^[b]

The reported logP of the compound C/C(=N\OCC1(CON)CC1)c1cccc(C)n1 [XII-13] was 0.78^[b]

# logP (compound: C/C(=N\OCC(C)(C)CON)c1cc(C(F)(F)F)cc(C)n1 [XII-16] ) is 2.69^[b]
